Reference source: PubChem BioAssay AID624330

- EXPERIMENTAL TARGET: Rac GTPase-activating protein 1 (Homo sapiens) (UniProt Q9H0H5)
- Sequence (Q9H0H5 whole entry, looked up): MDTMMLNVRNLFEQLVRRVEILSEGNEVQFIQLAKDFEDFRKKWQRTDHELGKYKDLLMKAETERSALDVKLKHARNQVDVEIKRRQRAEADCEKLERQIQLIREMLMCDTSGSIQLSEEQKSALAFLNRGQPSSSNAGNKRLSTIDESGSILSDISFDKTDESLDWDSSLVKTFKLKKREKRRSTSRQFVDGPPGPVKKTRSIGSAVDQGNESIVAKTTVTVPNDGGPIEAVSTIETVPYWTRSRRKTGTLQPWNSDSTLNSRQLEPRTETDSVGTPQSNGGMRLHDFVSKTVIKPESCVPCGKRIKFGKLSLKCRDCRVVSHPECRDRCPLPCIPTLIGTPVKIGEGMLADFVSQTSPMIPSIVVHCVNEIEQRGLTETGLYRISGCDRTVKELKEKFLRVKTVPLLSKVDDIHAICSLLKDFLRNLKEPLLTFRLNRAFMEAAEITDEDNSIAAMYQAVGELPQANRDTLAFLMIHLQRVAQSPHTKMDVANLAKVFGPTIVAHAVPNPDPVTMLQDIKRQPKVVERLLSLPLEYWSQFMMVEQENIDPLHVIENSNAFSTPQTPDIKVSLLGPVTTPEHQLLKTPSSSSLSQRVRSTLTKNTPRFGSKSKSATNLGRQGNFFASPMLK
- EXPERIMENTAL DETAILS: blockers of MgcRacGAP-driven Rac1 GTP hydrolysis – biochemical, ADP Hunter fluorescence, primary and confirmatory, confirmation (AID 624330);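 also: fluorescence reports GDP produced by GAP-driven GTP hydrolysis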
- CONDITION SET: MgcRacGAP-stimulated Rac1 GTP hydrolysis, at 30 µM, stronger effect = higher value, GST-tagged Rac1 F28L mutant substrate
The whole screen tested about 340,000 compounds, of which about 2,100 (0.62%) were called active. Not all results are given here. Potency and affinity values are given separately.
The label depends only on inhibition: Y if it is at least 6%, N if it is smaller.

Illustrative cases are given below, each with its answer.
>>> label_value("C(=N\\N=C\\c1ccccn1)/c1ccccn1")
"N"
>>> label_value("COC(=O)C1CC2=C(CCCC2=O)NC1=O (stereo not drawn)")
"N"
>>> label_value("O=C(c1ccc(Cl)c(S(=O)(=O)N2CCCCCC2)c1)N1CCCC(C(F)(F)F)C1 (stereo not drawn)")
"N"
>>> label_value("CCOC(=O)C1(CC2CCCCO2)CCN(C(=O)Nc2ccc(C)c(C)c2)CC1 (stereo not drawn)")
"Y"

// inclusive: inhibition at least 6%? input: Cc1ccc(NC(=O)c2cccc(Oc3ccc([N+](=O)[O-])cc3)c2)c(C(=O)O)c1
Y

Determine whether measured inhibition meets or exceeds 6% for O=C(c1ccccc1)c1ccc(OCCOCCN2CCN(Cc3ccccc3)CC2)cc1
Y

Decide: inhibition of O=C(CCc1nnc2ccc(NCc3ccc(F)cc3)nn12)NC1CCCC1 >= 6%?
Y
